This section presents sequences with their documented PBM binding z-score values.
Tested on: RXRa DBDmut IVT, anti-RXR (DBD mutation: RXRa K156A/R161A, NR concentration 90 nM)
Assay: PBM binding z-score (relative to random genomic background probes); higher = stronger binding; sequences stand for … in GC…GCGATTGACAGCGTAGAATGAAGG

// known answers, use as guide
>>> df
                       input_sequence  result
0  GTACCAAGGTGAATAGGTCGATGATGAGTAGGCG  -0.426
1  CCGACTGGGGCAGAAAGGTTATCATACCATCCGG  -0.376
2  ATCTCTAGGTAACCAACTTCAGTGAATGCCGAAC   0.264
3  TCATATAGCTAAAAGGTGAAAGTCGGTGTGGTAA   0.962
4  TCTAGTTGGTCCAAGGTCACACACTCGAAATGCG    2.01
5  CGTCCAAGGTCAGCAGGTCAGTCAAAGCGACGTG    2.69

Req: Provide PBM binding z-score value for the following sequence: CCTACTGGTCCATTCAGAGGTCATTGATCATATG
Resp: 1.73

Req: Provide PBM binding z-score value for the following sequence: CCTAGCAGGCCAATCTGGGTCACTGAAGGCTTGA
Resp: 0.114

Req: Provide PBM binding z-score value for the following sequence: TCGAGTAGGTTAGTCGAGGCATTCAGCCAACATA
Resp: -0.0873

* * *

This section presents sequences with their documented PBM binding z-score values.
System: PPARg DBDmut IVT, anti-PPARg (DBD mutation: PPARg1 K132A/R137A, NR concentration 270 nM)
Test: PBM binding z-score (relative to random genomic background probes); higher = stronger binding; sequences stand for … in GC…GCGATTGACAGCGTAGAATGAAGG
Number only, no unit.

>>> print(df.to_string())
                       input_sequence  number
0  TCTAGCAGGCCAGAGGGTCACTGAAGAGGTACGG    -1.2
1  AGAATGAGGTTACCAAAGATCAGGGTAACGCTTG   0.777
2  CCTTACGGGTCACGAGCTTATAGCACGACGAGCG    2.07
3  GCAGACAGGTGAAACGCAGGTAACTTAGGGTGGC  -0.922
4  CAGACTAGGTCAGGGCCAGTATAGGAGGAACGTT   0.382

Moving on to the next sequence.
Req: Provide PBM binding z-score value for the following sequence: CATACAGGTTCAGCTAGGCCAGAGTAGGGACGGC
Resp: 0.0145

* * *

Tested on: PPARg:RXRa (NR concentration 180 nM, RXRa partner concentration 90 nM)
Test: PBM binding z-score (relative to random genomic background probes); higher = stronger binding; sequences stand for … in GC…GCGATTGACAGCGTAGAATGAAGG
This section presents sequences with their documented PBM binding z-score values.

>>> df
                       input_sequence    measurement_label  result
0  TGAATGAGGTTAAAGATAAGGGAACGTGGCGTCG  PBM binding z-score    2.88
1  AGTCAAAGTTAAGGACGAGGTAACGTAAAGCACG  PBM binding z-score    0.85

Req: Provide PBM binding z-score value for the following sequence: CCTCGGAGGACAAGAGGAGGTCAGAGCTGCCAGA
Resp: 0.27
